Parameter: TGI. Scope: all listed entries.
- Test system: OVCAR-3 ovarian
- procedureText: NCI tumour cell line growth inhibition, 48 h

Completed entries (count: 4):
C[C@]12Cc3cn[nH]c3C(=O)C1CC[C@@H]1C2CC[C@@]2(C)C1CC[C@]2(C)O (stereo not given in full) : > 100 µM
COc1ccc(N2C(=O)CC(=O)N(C(=O)CCCCCCCCC(=O)N3C(=O)CC(=O)N(c4ccc(OC)cc4)C3=S)C2=S)cc1 : > 100 µM
CCOC(=O)c1sc2nc(SC)nc(N3CCCCC3)c2c1N : > 100 µM
CCOC(=O)C1C(=O)CC(O)(c2ccccc2)C(C(=O)OCC)C1c1ccc(N(C)C)cc1 (stereo not given) : > 75.1 µM

Now consider a different compound.
[ask] Param request: TGI | system OVCAR-3 ovarian | item CC1=CCCC(C)(O)C2CC(CCC3(C)OC3CC1)C(C)C(=O)O2 (stereo not given)
[reply] > 100 µM

----------
- System: RPMI-8226 leukemia
- procedureText: NCI tumour cell line growth inhibition, 48 h
Parameter: TGI. Scope: all listed entries.

Completed entries (count: 3):
COP(=O)(OC)C(C)(C)NC(=O)NC(F)(F)F : > 100 µM
Nc1ccc2nc3n(c(=O)c2c1)CCCCC3 : > 100 µM
CCOC(=O)c1ccc2[nH]c(O)c(C(=Nc3ccc(N(C)C(=O)CN4CCN(C)CC4)cc3)c3ccccc3)c2c1 : 3.55 µM

[ask] Param request: TGI | system RPMI-8226 leukemia | item NC1=NS(=O)(=O)Nc2nc(-c3ccccc3)c(-c3ccccc3)nc21
[reply] > 100 µM

[ask] Param request: TGI | system RPMI-8226 leukemia | item Cc1c(C(=O)O)nc(/C=C/C(=O)O)[nH]c1=O
[reply] > 100 µM

[ask] Param request: TGI | system RPMI-8226 leukemia | item CC#CC(OCC)(OCC)OCC
[reply] > 100 µM

[ask] Param request: TGI | system RPMI-8226 leukemia | item Cc1ccc(S(=O)(=O)NC2C(=O)c3ccccc3C(=O)C2n2ccnc2)cc1 (centres undefined)
[reply] > 100 µM

[ask] Param request: TGI | system RPMI-8226 leukemia | item O=C1Cc2c([nH]c3ccc([N+](=O)[O-])cc23)-c2ccccc2N1
[reply] 2.98 µM

----------
- Tested on: T-47D breast
- procedureText: NCI tumour cell line growth inhibition, 48 h
Parameter: TGI. Scope: all listed entries.

Completed entries (count: 2):
C=CS(=O)(=O)c1c2cc(OC)ccc2nc2ccc(OC)cc12 : 35.5 µM
Cc1c(C(=O)O)nc(/C=C/C(=O)O)[nH]c1=O : > 100 µM

[ask] Assign TGI to the following record: COc1ccc(NC(=S)N=Nc2c(O)[nH]c3ccccc23)cc1
[reply] > 100 µM

[ask] Assign TGI to the following record: Cc1ccccc1C1=C/C(=C(\SS/C(C(=O)c2ccc(OCC(=O)O)c(Cl)c2Cl)=C2\C=C(c3ccccc3C)SS2)C(=O)c2ccc(OCC(=O)O)c(Cl)c2Cl)SS1
[reply] 49 µM

[ask] Assign TGI to the following record: CCCCCc1cc2cc3c(c(O)c2c(=O)[nH]1)C1(CC3)C(O)=c2c(=O)c3c(=O)cc(OC)c(=O)c=3c(=O)c2=C1O (stereo not drawn)
[reply] 3.58 µM

----------
Parameter: TGI. Scope: all listed entries.
- Test system: HOP-92 NSCLC
- procedureText: NCI tumour cell line growth inhibition, 48 h
Give the number; µM is assumed, so skip it.

COc1ccc2c(c1)CN1C(=N2)CSC1c1c(Cl)cccc1[N+](=O)[O-] (centres undefined) : 55.7

Now consider a different compound.
[ask] Assign TGI to the following record: S=C(NC/C(Br)=C/Br)Nc1cccc2ccccc12
[reply] 55.9

----------
- Tested on: XF 498 CNS
- procedureText: NCI tumour cell line growth inhibition, 48 h
valueType: TGI

Completed entries (count: 2):
Cn1c(=O)c2c3ccccc3c(C(=O)c3ccccc3)n2c2ccccc21 : > 100 µM
N#CC(/C(=N/N=C(N)N)C(=O)Nc1ccccc1[N+](=O)[O-])c1nc(-c2ccc([N+](=O)[O-])cc2)cs1 (stereo not drawn) : > 100 µM

Now consider a different compound.
[ask] Param request: TGI | system XF 498 CNS | item S=C(N/N=C/c1ccccc1)NC12CC3CC(CC(C3)C1)C2
[reply] > 100 µM

----------
- Tested on: CAKI-1 renal
- procedureText: NCI tumour cell line growth inhibition, 48 h
Parameter: TGI. Scope: all listed entries.
Give the number; µM is assumed, so skip it.

Completed entries (count: 5):
O=C(CCN1CCCCC1)Nc1ccc2sc3ccccc3c(=O)c2n1 : 33.6
CCCCN(C(=O)c1ccccc1)C1CCC(=O)c2[nH]c3ccccc3c21 (stereo not given) : 84
O=C1c2ccccc2C2=Cc3ccccc3C(O)N12 (stereo not given) : 43.2
CCCN1C(=O)/C(=C/c2cccc(O)c2)SC1=Nc1ccc(OC)cc1 : 20.5
COc1ccc2nc(C)cc(NCCCCCCCCCNc3cc(C)nc4ccc(OC)cc34)c2c1 : 18.3

Now consider a different compound.
[ask] Assign TGI to the following record: CC1=NN(c2cccc(Cl)c2)C2(SCC(=O)N2c2nc3ccccc3s2)/C1=C\c1ccccc1 (stereo not given)
[reply] 53

----------
- Test system: MDA-MB-231 breast
- procedureText: NCI tumour cell line growth inhibition, 48 h
valueType: TGI

Cc1cnc(Cl)nc1C(C#N)c1nc2ccccc2s1 (configuration not stated) : > 100 µM

[ask] Assign TGI to the following record: Nc1ccc2c(c1)S(=O)(=O)c1cc(O)ccc1O2
[reply] > 100 µM

[ask] Assign TGI to the following record: COP1(=O)OCc2cnccc2O1 (configuration not stated)
[reply] > 100 µM

[ask] Assign TGI to the following record: CCOC(=O)C1=C(N)CCC1C (configuration not stated)
[reply] > 100 µM

[ask] Assign TGI to the following record: COP(=O)(OC)C(C)(C)NC(=O)NC(F)(F)F
[reply] > 100 µM

[ask] Assign TGI to the following record: C[C@H](O)CNc1cc(-c2[nH]c3cccnc3c2-c2ccc(F)cc2)ccn1
[reply] > 25 µM

[ask] Assign TGI to the following record: COC(=O)C(CCC1C=CN(S(=O)(=O)c2ccc(C)cc2)C1)N=Cc1ccccc1 (configuration not stated)
[reply] > 100 µM

[ask] Assign TGI to the following record: COc1ccc2cc(C(=O)Nc3ccc(O)c(C(=O)O)c3)ccc2c1OC
[reply] > 100 µM

[ask] Assign TGI to the following record: O=C(CSc1nccc(=O)[nH]1)c1ccccc1
[reply] > 100 µM

[ask] Assign TGI to the following record: CC1=CC(=O)C(=C(C)C)CC1
[reply] > 100 µM

[ask] Assign TGI to the following record: CSCCC(NC(=O)CNC(=O)C(CC(=O)O)NC(=O)C(NC(=O)C(NC(=O)C(NC(=O)CNC(=O)C(CCC(N)=O)NC(=O)C(CCSC)NC(=O)C(CC(=O)O)NC(=O)C(C)NC(=O)C(C)NC(=O)C(NC(=O)C(CO)NC(=O)C(N)CC(C)C)C(C)O)C(C)C)C(C)C)C(C)O)C(=O)NC(C)C(=O)NC(CO)C(=O)NCC(=O)NC(CC(C)C)C(=O)NC(CC(=O)O)C(=O)NC(CCCCN)C(=O)NC(CC(=O)O)C(=O)NC(Cc1ccc(O)cc1)C(=O)NC(CC(C)C)C(=O)NC(CCCCN)C(=O)N1CCCC1C(=O)NC(CC(=O)O)C(=O)NC(CC(=O)O)C(=O)O (configuration not stated)
[reply] > 82.5 µM

[ask] Assign TGI to the following record: CN1C(=O)N(C)C2C1NN=c1s/c(=C\c3ccccc3F)c(=O)n12 (configuration not stated)
[reply] > 41.6 µM

[ask] Assign TGI to the following record: COc1ccc(-c2nc3ccccc3c(=O)[nH]2)c(OC)c1
[reply] > 100 µM

[ask] Assign TGI to the following record: CCCCCC(/C=C/C1CCC(=O)C1)OCOCCOC (configuration not stated)
[reply] > 100 µM

[ask] Assign TGI to the following record: Cc1ccc(S(=O)(=O)NC2=NCCN2C(=S)SN2CCn3c2nsc3=S)cc1
[reply] 38 µM

[ask] Assign TGI to the following record: COc1cc(-c2cc(/C=C/C(=O)c3ccc(N)cc3)[nH]n2)cc(OC)c1OC
[reply] 12.2 µM

[ask] Assign TGI to the following record: O=C(COc1cccc(/C=C2/Oc3ccccc3C2=O)c1)Nc1nccs1
[reply] 29.8 µM

----------
- Tested on: SK-MEL-5 melanoma
- procedureText: NCI tumour cell line growth inhibition, 48 h
Parameter: log10 of TGI. Scope: all listed entries.
Plainly stated, the numbers are log10 of TGI given in µM.

[ask] Assign log10 of TGI to the following record: COc1ccc(C(=O)N/N=C2\C(=O)c3c(C)cc(C)cc3CC2(C)C)cc1
[reply] 1.50
